The reported measurements were obtained from PubChem BioAssay AID1159580.

ASSAY: chemical genetic growth profiling, strain panel (AID 1159580);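 further: tested at 20 µM; growth read once vehicle control cultures reached saturation at 30 °C; 1 = growth at the plate median or of vehicle wells; lower values mean less growth of the strain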
STATED CONDITIONS: S. cerevisiae deletion strains, growth OD, locus YKL203C, strain TOR2
In all, about 5,500 compounds went through this assay and about 2,000 (36%) were called active. Roughly 18% stayed inconclusive and do not appear here. No stated cut-off is given here; in the data, active means normalized growth mostly below about 0.91 (no sharp cut-off); inconclusive means no clear call, values can overlap the other calls; inactive means mostly above about 0.92. Some of the results follow.
Outcomes: active, inactive

INSERT INTO assay_data (compound, assigned_category) VALUES
  ('Cc1onc(-c2ccccc2)c1C(=O)Sc1ccc(C(F)(F)F)cn1', 'active'),
  ('Cc1nn(Cc2nnc(SCc3cccc(C(F)(F)F)c3)o2)c(C)c1Br', 'inactive'),
  ('O=C1/C(=C/c2cccs2)COc2ccccc21', 'inactive'),
  ('NNC(=O)c1csc(Cc2c(Cl)sc3ccc(Cl)cc23)n1', 'inactive'),
  ('Cc1ccc(S(=O)(=O)Nc2ccc(Oc3ccc(F)cc3)cc2)cc1', 'inactive'),
  ('O=C1CSC(c2ccc(C(F)(F)F)cc2)N1c1ccc(C(F)(F)F)cc1 (stereo not drawn)', 'inactive'),
  ('S=C(Nc1cc(Cl)c(Cl)cc1Cl)Nc1ccccc1Br', 'inactive'),
  ('O=C(Nc1ccc(F)c(Cl)c1)c1ccccc1O', 'inactive'),
  ('O=S(=O)(Nc1ccc(Oc2ccc(Cl)cc2)cc1)c1ccccc1', 'active'),
  ('COc1ccc(CC2CCC(=NOC(=O)c3ccc(C(C)(C)C)cc3)CC2)cc1 (stereo not drawn)', 'inactive'),
  ('Cc1ccc(N2C(=O)CSC2c2ccc(Cl)c(Cl)c2)cc1Cl (stereo not drawn)', 'inactive'),
  ('O=C1/C(=C/c2ccc(C(F)(F)F)cc2)COc2ccccc21', 'inactive'),
  ('N#Cc1ccc(NC(=O)Nc2cccc3ccccc23)cc1', 'inactive'),
  ('S=C(NNc1ccccc1)Nc1cc(Cl)ccc1Cl', 'inactive'),
  ('O=[N+]([O-])c1ccc(-c2csc(Nc3ccncc3)n2)cc1', 'inactive'),
  ('O=S(=O)(Nc1ccc(Oc2ccc(OC(F)(F)F)cc2)cc1)c1cccc(Cl)c1', 'inactive'),
  ('O=C(Nc1ccc(Cl)cc1)O/N=C\c1ccn(-c2ccccc2)n1', 'inactive'),
  ('O=C(CCn1c(=O)oc2ccccc21)Sc1ccc(C(F)(F)F)cc1', 'inactive'),
  ('COc1ccc(CC2CCC(=NOC(=O)c3c(Cl)cccc3Cl)CC2)cc1 (stereo not drawn)', 'inactive'),
  ('Cc1c(S(=O)(=O)c2ccc(Cl)cc2)csc1C(=O)NNc1cccc(Cl)c1', 'inactive'),
  ('Oc1ccc(N=Nc2ccccn2)c(O)c1', 'active'),
  ('CS(=O)(=O)/C(C#N)=C/c1ccccc1OCc1c(Cl)cccc1Cl', 'inactive'),
  ('O=C(CCn1c(=O)oc2ccccc21)Sc1ccc(Cl)cc1Cl', 'active');

* * *

ASSAY: chemical genetic growth profiling, strain panel (AID 1159580);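 further: tested at 20 µM; growth read once vehicle control cultures reached saturation at 30 °C; 1 = growth at the plate median or of vehicle wells; lower values mean less growth of the strain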
STATED CONDITIONS: S. cerevisiae deletion strains, growth OD, locus YLR102C, strain apc9, active compounds read low
Among all 5,500 compounds or so, about 2,000 (36%) were called active. Roughly 18% stayed inconclusive and do not appear here. This is one part of the list.
Listing of entries alongside the reported normalized growth.
MEASURED ENDPOINT: normalized growth

INSERT INTO assay_data (compound, experimental_value) VALUES
  ('CC1CC2C3CC(F)C4=CC(=O)C=CC4(C)C3(F)C(O)CC2(C)C1C(=O)COC(=O)C(C)(C)C (centres undefined)', 1.03),
  ('CC(=O)OCC(=O)[C@@]1(O)[C@H](OC(C)=O)CC2C3CCC4=CC(=O)C=C[C@]4(C)[C@@]3(F)[C@@H](O)C[C@@]21C (some centres undefined)', 0.999),
  ('O=C(Nc1ccccc1)Nc1ccccc1', 0.98),
  ('CC(=O)Nc1ccccc1', 0.983);
